- Test system: TK-10 renal
- Experiment Summary: NCI tumour cell line growth inhibition, 48 h
Measurement Label: TGI (µM)
All answers are understood in µM, so give the number only.

State its TGI for this compound: COc1cc2ncnc(-n3ncc4cc(NC(=O)Nc5ccccc5)ccc43)c2cc1OC
2.56

Tell us which TGI value is on record for O=S(=O)(c1ccc(NC(=S)NC23CC4CC(CC(C4)C2)C3)cc1)N1CCCCC1
64.1

Using known records, supply TGI for COc1cc2c(cc1OCCCCC(=O)Nc1cc3c4ccccc4ccc3c3ccccc13)N=C[C@@H]1CCCN1C2=O
5.73

Name the recorded TGI of the compound listed here: COc1c(C)cc2c(c1O)C1C3[C@H]4SC[C@@]5(NCCC6=C5NC5C=CC=CC65)C(=O)OCC(c5c6c(c(C)c(OC(C)=O)c54)OCO6)N3[C@@H](O)C(C2)N1C (stereo not given in full)
12.8

# credit: PubChem BioAssay (NCI)
